Below are molecules with their Ki as measured on 5-hydroxytryptamine receptor 4 (Cavia porcellus, UniProt O70528).
Sequence (O70528 whole entry): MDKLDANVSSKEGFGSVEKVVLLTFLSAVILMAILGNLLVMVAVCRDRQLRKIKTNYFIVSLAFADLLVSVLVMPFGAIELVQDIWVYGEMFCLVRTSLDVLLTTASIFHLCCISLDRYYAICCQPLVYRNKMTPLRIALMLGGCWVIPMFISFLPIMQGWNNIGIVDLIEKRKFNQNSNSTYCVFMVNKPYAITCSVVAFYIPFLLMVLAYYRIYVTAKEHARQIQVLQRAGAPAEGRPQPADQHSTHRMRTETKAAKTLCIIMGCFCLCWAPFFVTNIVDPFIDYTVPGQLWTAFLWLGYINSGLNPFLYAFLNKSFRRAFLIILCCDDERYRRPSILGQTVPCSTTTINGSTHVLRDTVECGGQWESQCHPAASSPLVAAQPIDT
quantity_measured: Ki (nM)

1. CCN1CCN(CCNC(=O)n2c(=O)n(C(C)C)c3ccccc32)CC1
2. C=CC[N+]1(C)CCN(CCNC(=O)n2c(=O)n(C(C)C)c3ccccc32)CC1
Hi there, can you help? I need to know whether 1 or 2 has lower measured Ki. Pick one and reply with its label.
2

====

pKi: −log10 of the molar value.
Quick note: these are pKi numbers for system: 5-hydroxytryptamine receptor 4 (Cavia porcellus, UniProt O70528)
quantity_measured: pKi

| compound | measured_target | pKi |
| --- | --- | --- |
| CN1CCN(CNC(=O)n2c(=O)n(C3CC3)c3ccccc32)CC1 | 5-hydroxytryptamine receptor 4 (Cavia porcellus, UniProt O70528) | 7.31 |
| CCCN1CCN(CCNC(=O)n2c(=O)n(C3CC3)c3ccccc32)CC1 | 5-hydroxytryptamine receptor 4 (Cavia porcellus, UniProt O70528) | 8.09 |
| CN1CCN(CCNC(=O)n2c(=O)n(C)c3ccccc32)CC1 | 5-hydroxytryptamine receptor 4 (Cavia porcellus, UniProt O70528) | 6.51 |

A. CCCN1CCN(CCNC(=O)n2c(=O)n(CC)c3ccccc32)CC1
B. CCCC[N+]1(C)CCN(CCNC(=O)n2c(=O)n(C(C)C)c3ccccc32)CC1
C. CCCCN1CCN(CCNC(=O)n2c(=O)n(C(C)C)c3ccccc32)CC1
# sort list by recorded pKi, greatest to least List the labels in the requested order.
A, C, B

====

pKb reference
test system: 5-HT4 receptor (Rattus norvegicus); assay: Antagonistic activity against 5-hydroxytryptamine 4 receptor

| compound | pKb |
| --- | --- |
| CCCC[N+]1(C)CCN(CCNC(=O)n2c(=O)n(C(C)C)c3ccccc32)CC1 | 6 |
| CN1CCN(CCNC(=O)n2c(=O)n(C)c3ccccc32)CC1 | < 6 |
| CCCCn1c(=O)n(C(=O)NCCN2CCN(C)CC2)c2ccccc21 | < 6 |
| C=CCn1c(=O)n(C(=O)NCCN2CCN(C)CC2)c2ccccc21 | < 6 |
| CCCCN1CCN(CCNC(=O)n2c(=O)n(C3CC3)c3ccccc32)CC1 | 7.51 |
| CC(C)n1c(=O)n(C(=O)NCCN2CCN(C)CC2)c2cc(F)c(N)cc21 | < 6 |
| CCCn1c(=O)n(C(=O)NCCN2CCN(C)CC2)c2ccccc21 | < 6 |
| CC(C)n1c(=O)n(C(=O)NCCN2CCN(C)CC2)c2ccccc21 | < 6 |

Short answer please: pKb, 5-HT4 receptor (Rattus norvegicus), entry "COc1ccc2c(c1)n(C(=O)NCCN1CCN(C)CC1)c(=O)n2C(C)C"
< 6

Under 5-HT4 receptor (Rattus norvegicus): pKb value of "CN1CCN(CCNC(=O)n2c(=O)[nH]c3ccccc32)CC1" ?
< 6

Short answer please: pKb, 5-HT4 receptor (Rattus norvegicus), entry "CC(C)n1c(=O)n(C(=O)NCCN2CC[N+](C)(C)CC2)c2ccccc21"
< 6

Notebook entry, 5-HT4 receptor (Rattus norvegicus) assay: pKb of "CN1CCN(CCCNC(=O)n2c(=O)n(C3CC3)c3ccccc32)CC1" = ?
6.4
